Cited source for all entries: ChEMBL document CHEMBL1201862

Biological target: Protein RecA (Mycobacterium tuberculosis) (UniProt P9WHJ3)
Sequence (whole entry): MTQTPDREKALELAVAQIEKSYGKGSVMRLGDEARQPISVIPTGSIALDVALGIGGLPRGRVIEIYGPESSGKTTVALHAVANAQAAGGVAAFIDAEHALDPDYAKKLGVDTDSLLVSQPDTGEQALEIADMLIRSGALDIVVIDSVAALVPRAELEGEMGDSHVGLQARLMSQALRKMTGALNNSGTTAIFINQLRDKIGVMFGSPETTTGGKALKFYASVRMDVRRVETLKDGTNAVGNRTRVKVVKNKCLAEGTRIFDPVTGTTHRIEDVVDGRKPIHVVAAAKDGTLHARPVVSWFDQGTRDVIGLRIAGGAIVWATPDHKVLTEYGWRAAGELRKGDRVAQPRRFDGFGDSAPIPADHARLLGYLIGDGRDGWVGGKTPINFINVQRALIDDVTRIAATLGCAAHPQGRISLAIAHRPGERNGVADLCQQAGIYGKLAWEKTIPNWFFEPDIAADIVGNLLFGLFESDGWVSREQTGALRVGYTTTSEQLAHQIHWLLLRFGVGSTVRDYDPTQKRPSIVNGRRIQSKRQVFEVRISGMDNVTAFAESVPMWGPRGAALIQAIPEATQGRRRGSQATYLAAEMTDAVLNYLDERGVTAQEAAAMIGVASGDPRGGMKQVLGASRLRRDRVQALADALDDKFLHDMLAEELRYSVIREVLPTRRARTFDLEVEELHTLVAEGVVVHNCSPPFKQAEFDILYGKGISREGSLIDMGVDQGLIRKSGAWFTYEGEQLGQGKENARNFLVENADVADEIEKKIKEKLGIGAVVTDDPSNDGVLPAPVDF
Assay: M. tuberculosis H37Rv growth inhibition, dose response, strain H37Rv (AID 489010);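 note: whole Mycobacterium tuberculosis cells grown in culture and not purified RecA protein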
Assay type: functional
These assays gave more results; the selection is not random.

| compound | IC90 |
| --- | --- |
| CC(=O)n1cc(N(C(=O)CCl)c2ccccc2)c2ccccc21 | 5.8 µM (active) |
| Cc1sc2ncnc(Sc3nnnn3-c3ccccc3)c2c1C | > 100 µM (active) |
| O=C(NC1CCCCC1)C(c1cccnc1)N(C(=O)CCl)c1cccc(Cl)c1 (stereo unspecified) | 28 µM (active) |
| Cc1ccc(Sc2ccc(NC(=O)CCl)cc2)cc1C | 52.4 µM (active) |
| Cc1ccc(N(NC(=O)C(O)(c2ccccc2)c2ccccc2)C(=O)CCl)cc1 | 27.4 µM (active) |
| Cc1[nH]n(-c2ccccc2)c(=O)c1C(C[N+](=O)[O-])c1ccc(F)cc1 (stereo unspecified) | 32.8 µM (active) |
